biological target: CCR1 (Homo sapiens); experiment: Method B: calcium flux in CCR1 transfected cells (Calcium 4 dye, […] FDSS6000), block of the CCR1/MIP-1α interaction; format: cell-based; settings: Method B: Calcium 4 dye, MIP-1alpha at EC80
outcome measure: IC50 (nM)
Dear colleague, please return just the value in nM, with no unit written.

Req: Look up IC50 for this compound: CS(=O)(=O)c1ncc(CNC(=O)c2cncc3c2cnn3-c2ccc(F)cc2)s1
Resp: 17

Req: Look up IC50 for this compound: CC[C@H](NC(=O)c1cncc2c1cnn2-c1ccc(F)cc1)c1ccnc(C#N)c1
Resp: 0.3

Req: Look up IC50 for this compound: CC[C@H](NC(=O)c1cncc2c1cnn2-c1ccc(F)cc1)c1ccnc([S+](C)[O-])c1 (some centres unmarked)
Resp: 0.5

Req: Look up IC50 for this compound: CC[C@H](NC(=O)c1cncc2c1cnn2-c1ccc(F)cc1)c1ccnc(N2CCOCC2)c1
Resp: 0.7

Req: Look up IC50 for this compound: C[C@H](NC(=O)c1cncc2c1cnn2-c1ccc(F)cc1)c1cncc(S(N)(=O)=O)c1
Resp: 0.9

====

So I've got a bunch of compounds here, and I need their IC50 values.
target: CCR1 (Homo sapiens, UniProt P32246); assay: Method B: calcium flux in CCR1 transfected cells (Calcium 4 dye, […] FDSS6000), block of the CCR1/MIP-1α interaction; assay type: cell-based; details: Method B: Calcium 4 dye, MIP-1alpha at EC80
Sequence (P32246 whole entry): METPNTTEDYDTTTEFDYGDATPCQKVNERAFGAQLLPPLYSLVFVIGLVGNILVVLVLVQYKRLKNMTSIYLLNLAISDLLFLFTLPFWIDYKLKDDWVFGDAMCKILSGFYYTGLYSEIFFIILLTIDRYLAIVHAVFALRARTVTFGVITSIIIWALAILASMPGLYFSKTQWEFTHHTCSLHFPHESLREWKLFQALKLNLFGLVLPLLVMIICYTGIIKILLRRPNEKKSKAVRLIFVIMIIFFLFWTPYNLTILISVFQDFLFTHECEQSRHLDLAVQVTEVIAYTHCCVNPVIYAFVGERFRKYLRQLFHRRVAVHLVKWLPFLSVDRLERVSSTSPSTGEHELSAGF
Be sure to follow the number with its unit.

Req: For the record CS(=O)(=O)c1cc([C@H](CO)NC(=O)c2cncc3c2cnn3-c2ccc(F)cc2)ccn1 , what value of IC50 is listed for CCR1 (Homo sapiens, UniProt P32246)?
Resp: 6 nM

Req: For the record CC[C@H](NC(=O)c1cncc2c1cnn2-c1ccc(F)cc1)c1cnc(S(C)(=O)=O)o1 , what value of IC50 is listed for CCR1 (Homo sapiens, UniProt P32246)?
Resp: 3 nM

Req: For the record C[C@H](NC(=O)c1cncc2c1cnn2-c1ccc(F)cc1)c1cc(S(C)(=O)=O)[nH]c(=O)c1 , what value of IC50 is listed for CCR1 (Homo sapiens, UniProt P32246)?
Resp: 3 nM

Req: For the record CC[C@H](NC(=O)c1cncc2c1cnn2-c1ccc(F)cc1)c1cncc(S(=O)(=O)CCC(=O)OC)c1 , what value of IC50 is listed for CCR1 (Homo sapiens, UniProt P32246)?
Resp: 6.3 nM

Req: For the record CS(=O)(=O)c1cc(CNC(=O)c2cncc3c2cnn3-c2ccc(F)cc2)cc(Br)n1 , what value of IC50 is listed for CCR1 (Homo sapiens, UniProt P32246)?
Resp: 1 nM

Req: For the record CC[C@H](NC(=O)c1cncc2c1cnn2-c1ccc(F)cc1)c1ccnc(SC)c1 , what value of IC50 is listed for CCR1 (Homo sapiens, UniProt P32246)?
Resp: 0.2 nM

Req: For the record CC[C@@H](NC(=O)c1cncc2c1cnn2-c1ccc(F)cc1)c1ccc(OC)c(Br)c1 , what value of IC50 is listed for CCR1 (Homo sapiens, UniProt P32246)?
Resp: 0.2 nM

Req: For the record CC[C@H](NC(=O)c1cncc2c1cnn2-c1ccc(F)cc1)c1ccc(S(C)(=O)=O)c(OC)c1 , what value of IC50 is listed for CCR1 (Homo sapiens, UniProt P32246)?
Resp: 0.2 nM

Req: For the record CC[C@H](NC(=O)c1cncc2c1cnn2-c1ccc(F)cc1)c1ccn(S(=O)(=O)c2ccc(C)cc2)c1 , what value of IC50 is listed for CCR1 (Homo sapiens, UniProt P32246)?
Resp: 3 nM

Req: For the record CCS(=O)(=O)c1ccc([C@H](C)NC(=O)c2cncc3c2cnn3-c2ccc(F)cc2)cn1 , what value of IC50 is listed for CCR1 (Homo sapiens, UniProt P32246)?
Resp: 6 nM

Req: For the record C[C@H](NC(=O)c1cncc2c1cnn2-c1ccc(F)cc1)c1ccnc(Br)c1 , what value of IC50 is listed for CCR1 (Homo sapiens, UniProt P32246)?
Resp: 0.4 nM

Req: For the record CC[C@H](NC(=O)c1cncc2c1cnn2-c1ccc(F)cc1)c1ccnc(N(C)CCOC)c1 , what value of IC50 is listed for CCR1 (Homo sapiens, UniProt P32246)?
Resp: 1 nM

Req: For the record CCC(NC(=O)c1cncc2c1cnn2-c1ccc(F)cc1)c1nc(C(=O)OC)c(C)o1 (stereo not drawn) , what value of IC50 is listed for CCR1 (Homo sapiens, UniProt P32246)?
Resp: 27 nM

Req: For the record C=CC[C@H](NC(=O)c1cncc2c1cnn2-c1ccc(F)cc1)c1ccnc(S(=O)(=O)CC)c1 , what value of IC50 is listed for CCR1 (Homo sapiens, UniProt P32246)?
Resp: 0.4 nM

Req: For the record CCC(NC(=O)c1cncc2c1cnn2-c1ccc(F)cc1)c1cnc(N(C)S(C)(=O)=O)nc1 (stereo not drawn) , what value of IC50 is listed for CCR1 (Homo sapiens, UniProt P32246)?
Resp: 7 nM

Req: For the record CS(=O)(=O)c1cc([C@H](CC2COC(=O)O2)NC(=O)c2cncc3c2cnn3-c2ccc(F)cc2)ccn1 (stereo partly drawn) , what value of IC50 is listed for CCR1 (Homo sapiens, UniProt P32246)?
Resp: 6 nM

Req: For the record CCC(NC(=O)c1cncc2c1cnn2-c1ccc(F)cc1)c1nc(C(=O)NCC(N)=O)c(C)o1 (stereo not drawn) , what value of IC50 is listed for CCR1 (Homo sapiens, UniProt P32246)?
Resp: 25 nM

Req: For the record CCC(NC(=O)c1cncc2c1cnn2-c1ccc(F)cc1)c1nc(C(=O)NCC(=O)OC)c(C)o1 (stereo not drawn) , what value of IC50 is listed for CCR1 (Homo sapiens, UniProt P32246)?
Resp: 26 nM

====

So I've got a bunch of compounds here, and I need their IC50 values.
Target: CCR1 (Homo sapiens)
Assay: Method B: calcium flux in CCR1 transfected cells (Calcium 4 dye, […] FDSS6000), block of the CCR1/MIP-1α interaction
Assay type: cell-based
Conditions: Method B: Calcium 4 dye, MIP-1alpha at EC80
Procedure: Compounds are assessed for the ability to block the interaction of CCR1 and MIP-1α in a functional cellular assay measuring calcium flux in CCR1 transfected cells. Method B: Non-adherent cells purchased from Chemicon Corporation (HTS005C), stably expressing recombinant CCR1 and G-alpha-16 are grown in RPMI 1640 medium (Mediatech 10-080-CM) supplemented with 10% FBS, 0.4 mg/mL Geneticin and penicillin/streptomycin. […] All plates must be read within 4 hours of the start of dye-loading. […]
Dear colleague, please return just the value in nM, with no unit written.

Req: Look up IC50 for this compound: CC[C@H](NC(=O)c1cncc2c1cnn2-c1ccc(F)cc1)c1cccc(S(C)(=O)=O)c1
Resp: 0.3

Req: Look up IC50 for this compound: CC[C@H](NC(=O)c1cncc2c1cnn2-c1ccc(F)cc1)c1ccc(O)c(S(C)(=O)=O)c1
Resp: 0.2

Req: Look up IC50 for this compound: CS(=O)(=O)c1cc(CNC(=O)c2cncc3c2cnn3-c2ccc(F)cc2)cc(=O)[nH]1
Resp: 17

Req: Look up IC50 for this compound: CC[C@H](NC(=O)c1cncc2c1cnn2-c1ccc(F)cc1)c1cccc(Br)n1
Resp: 0.2

Req: Look up IC50 for this compound: CCS(=O)(=O)c1cc([C@H](C)NC(=O)c2cncc3c2cnn3-c2ccc(F)cc2)ccn1
Resp: 2

Req: Look up IC50 for this compound: CC[C@H](NC(=O)c1cncc2c1cnn2-c1ccc(F)cc1)c1ccc(Br)c(OC)c1
Resp: 0.5

Req: Look up IC50 for this compound: CCS(=O)(=O)c1cccc([C@H](C)NC(=O)c2cncc3c2cnn3-c2ccc(F)cc2)n1
Resp: 14

Req: Look up IC50 for this compound: C[C@H](NC(=O)c1cncc2c1cnn2-c1ccc(F)cc1)c1cccc(Cl)c1
Resp: 5

Req: Look up IC50 for this compound: C[C@H](NC(=O)c1cncc2c1cnn2-c1ccc(F)cc1)c1nc(Br)cs1
Resp: 24

Req: Look up IC50 for this compound: CC[C@H](NC(=O)c1cncc2c1cnn2-c1ccc(F)cc1)c1cccc(S(=O)(=O)CCC(=O)OC)n1
Resp: 3

Req: Look up IC50 for this compound: O=C(NCc1cnc(N2CCOCC2)nc1)c1cncc2c1cnn2-c1ccc(F)cc1
Resp: 8

Req: Look up IC50 for this compound: CCC[C@@H](NC(=O)c1cncc2c1cnn2-c1ccc(F)cc1)c1ccc(OC)c(Br)c1
Resp: 0.3

Req: Look up IC50 for this compound: COC(=O)CCS(=O)(=O)c1cccc([C@H](C)NC(=O)c2cncc3c2cnn3-c2ccc(F)cc2)n1
Resp: 35

Req: Look up IC50 for this compound: CC[C@H](NC(=O)c1cncc2c1cnn2-c1ccc(F)cc1)c1ccnc([S@@+](C)[O-])c1
Resp: 0.6

Req: Look up IC50 for this compound: CC[C@H](NC(=O)c1cncc2c1cnn2-c1ccc(F)cc1)c1cc(NC)nc(S(C)(=O)=O)c1
Resp: 0.3

Req: Look up IC50 for this compound: Cc1cc(CNC(=O)c2cncc3c2cnn3-c2ccc(F)cc2)cc(S(C)(=O)=O)n1
Resp: 5

Req: Look up IC50 for this compound: CCC[C@@H](NC(=O)c1cncc2c1cnn2-c1ccc(F)cc1)c1ccc(OC)c(S(C)(=O)=O)c1
Resp: 0.2

Req: Look up IC50 for this compound: CCS(=O)(=O)c1cncc([C@H](C)NC(=O)c2cncc3c2cnn3-c2ccc(F)cc2)c1
Resp: 4
